- protocolNotes: in vivo
- experimentalParameters: mouse, mice, oral
recordedEndpoint: LD50 (mg/kg)
Unit mg/kg implied. Number only.

CCC(=O)N1NC(N(C(C)C)C(C)C)=Nc2ncccc21 [Example 2]; 2000

Please turn your attention to the following entry.
INPUT: Data request, read-out LD50, for CCC(=O)N1C(N2CCOCC2)=Nc2ncccc2N1C(=O)CC [Example 1]
OUTPUT: 1600

These entries and their values trace back to patent US4324786A.
